Test system: K-562
Assay: cells
Settings: Homo sapiens, K562, 48 h, read-out: LC50
property label: CC50

molecule="O=C(O)C(Cc1ccccc1)N1C(=O)/C(=C/C(Cl)=C/c2ccc([N+](=O)[O-])cc2)SC1=S (centres unmarked) [Compound 2j]" recorded_result="> 100 µM"

Exercise: If you can, please state the reported CC50 value of O=C1/C(=C/C(Cl)=C/c2ccc([N+](=O)[O-])cc2)SC(=S)N1/N=C\C(Cl)=C\c1ccc([N+](=O)[O-])cc1 [Compound 2c] .
Key: > 100 µM

Exercise: Repeat with O=C1/C(=C/C(Cl)=C/c2ccc([N+](=O)[O-])cc2)SC(=S)N1c1ccc(O)cc1 [Compound 2f]
Key: > 100 µM

Exercise: Repeat with O=C1NC(=S)S/C1=C\C(Cl)=C\c1ccc([N+](=O)[O-])cc1 [Compound 2b]
Key: > 50 µM

Exercise: Repeat with O=C(O)CCN1C(=O)/C(=C/C(Cl)=C/c2ccc([N+](=O)[O-])cc2)SC1=S [Compound 2h]
Key: > 100 µM

Attribution: paper PMC8161026
